Assay: Permeability, Pe of the compound
Type: ADME
Details: not told; read-out: permeability
Quick rule for you: Papp at 3 ×10⁻⁶ cm/s or higher means Met, lower means Not met.

Req: // inclusive: Papp at least 3 ×10⁻⁶ cm/s? input: `O=C(NC12CC3CC(CC(C3)C1)C2)N1Cc2ccccc2C1`
Resp: Met

Req: // inclusive: Papp at least 3 ×10⁻⁶ cm/s? input: O=C(C1C2CC3CC(C2)CC1C3)N1CCc2ccccc21 (stereo not given)
Resp: Not met

Req: // inclusive: Papp at least 3 ×10⁻⁶ cm/s? input: `O=C(N1CCc2ccccc21)C12CC3CC(CC(C3)C1)C2`
Resp: Not met

Req: // inclusive: Papp at least 3 ×10⁻⁶ cm/s? input: COCCOC1CCN(C(=O)C23CC4CC(CC(C4)C2)C3)c2ccccc21 (stereo not given)
Resp: Met

Req: // inclusive: Papp at least 3 ×10⁻⁶ cm/s? input: CCOC1CCN(C(=O)C23CC4CC(CC(C4)C2)C3)c2ccccc21 (stereo not given)
Resp: Not met

Req: // inclusive: Papp at least 3 ×10⁻⁶ cm/s? input: `O=C(N1Cc2ccccc2C1)C12CC3CC(CC(C3)C1)C2`
Resp: Not met

Req: // inclusive: Papp at least 3 ×10⁻⁶ cm/s? input: `O=C(N1CCc2cc(F)ccc21)C12CC3CC(CC(C3)C1)C2`
Resp: Not met

Req: // inclusive: Papp at least 3 ×10⁻⁶ cm/s? input: `O=C(N1CCc2ccccc21)C12CC3CC(CC1C3)C2`
Resp: Not met

Req: // inclusive: Papp at least 3 ×10⁻⁶ cm/s? input: COC1CCN(C(=O)C23CC4CC(CC(C4)C2)C3)c2ccccc21 (stereo not given)
Resp: Met

Req: // inclusive: Papp at least 3 ×10⁻⁶ cm/s? input: `O=C(N1CCc2ccccc21)C12CC3CC(CC(O)(C3)C1)C2`
Resp: Met

====

For each record, write down the corresponding solubility.
Assay: Solubility, of the compound by LYSA assay
Format: physicochemical

Req: Note down solubility recorded for `Cc1cccc2c1CCN2C(=O)C12CC3CC(CC(C3)C1)C2`
Resp: < 1 µg/mL

Req: Note down solubility recorded for `O=C(N1CCc2ccc(C(F)(F)F)cc21)C12CC3CC(CC(C3)C1)C2`
Resp: < 1 µg/mL

Req: Note down solubility recorded for `CN1CCN(C(=O)C23CC4CC(CC(C4)C2)C3)c2ccccc21`
Resp: < 1 µg/mL

Req: Note down solubility recorded for `CC1(C)CN(C(=O)C23CC4CC(CC(C4)C2)C3)c2ccccc21`
Resp: < 1 µg/mL

Req: Note down solubility recorded for COC1CCN(C(=O)C23CC4CC(CC(C4)C2)C3)c2ccccc21 (stereo not given)
Resp: 10 µg/mL

====

Assay: Metabolic stability in human microsomes assessed as maximal achievable bioavailability
Assay type: ADME, Microsome
Details: read-out: Stability
For each record, write down the corresponding Fh.
Provide the measurement as a number trailed by its unit.

Req: Note down Fh recorded for `O=C(N1CCc2ccccc21)C12CC3CC(CC(O)(C3)C1)C2`
Resp: 90%

Req: Note down Fh recorded for `O=C(N1CCc2ccccc21)C12CC3CC(CC(C3)C1)C2`
Resp: 45%

Req: Note down Fh recorded for `O=C(N1CCc2ccccc21)C12CC3CC(CC1C3)C2`
Resp: 55%

Req: Note down Fh recorded for COCCOC1CCN(C(=O)C23CC4CC(CC(C4)C2)C3)c2ccccc21 (stereo not given)
Resp: 5%

Req: Note down Fh recorded for `Cc1cccc2c1N(C(=O)C13CC4CC(CC(C4)C1)C3)CC2`
Resp: 51%

====

Assay: Solubility, of the compound by LYSA assay
Format: physicochemical
Measurement type: solubility

Req: Note down solubility recorded for CCOC1CCN(C(=O)C23CC4CC(CC(C4)C2)C3)c2ccccc21 (stereo unspecified)
Resp: 17 µg/mL

Req: Note down solubility recorded for `O=C(N1CCc2ccccc21)C12CC3CC(CC1C3)C2`
Resp: < 1 µg/mL

Req: Note down solubility recorded for `O=C(NC12CC3CC(CC(C3)C1)C2)N1Cc2ccccc2C1`
Resp: < 1 µg/mL

Req: Note down solubility recorded for `O=C(N1CCCc2ccccc21)C12CC3CC(CC(C3)C1)C2`
Resp: < 1 µg/mL

Req: Note down solubility recorded for `O=C(N1CCc2cc(F)ccc21)C12CC3CC(CC(C3)C1)C2`
Resp: < 1 µg/mL

Req: Note down solubility recorded for `O=C(N1CCc2ccccc21)C12CC3CC(CC(O)(C3)C1)C2`
Resp: > 318 µg/mL

Req: Note down solubility recorded for O=C(C1C2CC3CC(C2)CC1C3)N1CCc2ccccc21 (stereo unspecified)
Resp: < 1 µg/mL

Req: Note down solubility recorded for `Cc1cccc2c1N(C(=O)C13CC4CC(CC(C4)C1)C3)CC2`
Resp: < 1 µg/mL

Req: Note down solubility recorded for `O=C(N1Cc2ccccc2C1)C12CC3CC(CC(C3)C1)C2`
Resp: < 1 µg/mL

Req: Note down solubility recorded for `O=C(N1CCc2ccccc21)C12CC3CC(CC(C3)C1)C2`
Resp: < 1 µg/mL

Req: Note down solubility recorded for COCCOC1CCN(C(=O)C23CC4CC(CC(C4)C2)C3)c2ccccc21 (stereo unspecified)
Resp: 97 µg/mL

====

Assay: Permeability, Pe of the compound assessed as drug accumulation
Assay type: ADME
Settings: not told; read-out: permeability
Quick rule for you: Papp at 5 ×10⁻⁶ cm/s or higher means criterion met, lower means criterion not met.

Req: // inclusive: Papp at least 5 ×10⁻⁶ cm/s? input: COCCOC1CCN(C(=O)C23CC4CC(CC(C4)C2)C3)c2ccccc21 (stereo not given)
Resp: criterion met

Req: // inclusive: Papp at least 5 ×10⁻⁶ cm/s? input: `O=C(NC12CC3CC(CC(C3)C1)C2)N1Cc2ccccc2C1`
Resp: criterion met

Req: // inclusive: Papp at least 5 ×10⁻⁶ cm/s? input: `O=C(N1CCc2ccccc21)C12CC3CC(CC(C3)C1)C2`
Resp: criterion not met

Req: // inclusive: Papp at least 5 ×10⁻⁶ cm/s? input: COC1CCN(C(=O)C23CC4CC(CC(C4)C2)C3)c2ccccc21 (stereo not given)
Resp: criterion not met

Req: // inclusive: Papp at least 5 ×10⁻⁶ cm/s? input: `O=C(N1CCc2ccccc21)C12CC3CC(CC1C3)C2`
Resp: criterion not met

Req: // inclusive: Papp at least 5 ×10⁻⁶ cm/s? input: `O=C(N1Cc2ccccc2C1)C12CC3CC(CC(C3)C1)C2`
Resp: criterion met

Req: // inclusive: Papp at least 5 ×10⁻⁶ cm/s? input: `O=C(N1CCc2ccccc21)C12CC3CC(CC(O)(C3)C1)C2`
Resp: criterion met

Req: // inclusive: Papp at least 5 ×10⁻⁶ cm/s? input: CCOC1CCN(C(=O)C23CC4CC(CC(C4)C2)C3)c2ccccc21 (stereo not given)
Resp: criterion not met

Req: // inclusive: Papp at least 5 ×10⁻⁶ cm/s? input: `O=C(N1CCc2cc(F)ccc21)C12CC3CC(CC(C3)C1)C2`
Resp: criterion not met

====

Experiment: Metabolic stability in human microsomes assessed as maximal achievable bioavailability
Format: ADME, Microsome
Details: read-out: Stability
Quick rule for you: Fh at 40% or higher means Criterion met, lower means Criterion not met.

Req: // inclusive: Fh at least 40%? input: O=C(C1C2CC3CC(C2)CC1C3)N1CCc2ccccc21 (stereo unspecified)
Resp: Criterion not met

Req: // inclusive: Fh at least 40%? input: `CN1CCN(C(=O)C23CC4CC(CC(C4)C2)C3)c2ccccc21`
Resp: Criterion not met

Req: // inclusive: Fh at least 40%? input: `O=C(N1CCc2ccc(C(F)(F)F)cc21)C12CC3CC(CC(C3)C1)C2`
Resp: Criterion not met

Req: // inclusive: Fh at least 40%? input: COC1CCN(C(=O)C23CC4CC(CC(C4)C2)C3)c2ccccc21 (stereo unspecified)
Resp: Criterion not met

Req: // inclusive: Fh at least 40%? input: `O=C(N1CCCc2ccccc21)C12CC3CC(CC(C3)C1)C2`
Resp: Criterion not met

Req: // inclusive: Fh at least 40%? input: `O=C(NC12CC3CC(CC(C3)C1)C2)N1Cc2ccccc2C1`
Resp: Criterion not met

Req: // inclusive: Fh at least 40%? input: `Cc1cccc2c1CCN2C(=O)C12CC3CC(CC(C3)C1)C2`
Resp: Criterion met

Req: // inclusive: Fh at least 40%? input: `O=C(N1Cc2ccccc2C1)C12CC3CC(CC(C3)C1)C2`
Resp: Criterion met

Req: // inclusive: Fh at least 40%? input: CCOC1CCN(C(=O)C23CC4CC(CC(C4)C2)C3)c2ccccc21 (stereo unspecified)
Resp: Criterion not met

Req: // inclusive: Fh at least 40%? input: `O=C(N1CCc2cc(F)ccc21)C12CC3CC(CC(C3)C1)C2`
Resp: Criterion met
